target: T1, human BACE1 ECD; assay: Octet, pH 5.0
T1 construct: analyte of the Octet assay (200 nM) and enzyme of the first short substrate assay; also called human BACE1 extracellular domain
T1 sequence (single chain, as listed by the source limits assumed): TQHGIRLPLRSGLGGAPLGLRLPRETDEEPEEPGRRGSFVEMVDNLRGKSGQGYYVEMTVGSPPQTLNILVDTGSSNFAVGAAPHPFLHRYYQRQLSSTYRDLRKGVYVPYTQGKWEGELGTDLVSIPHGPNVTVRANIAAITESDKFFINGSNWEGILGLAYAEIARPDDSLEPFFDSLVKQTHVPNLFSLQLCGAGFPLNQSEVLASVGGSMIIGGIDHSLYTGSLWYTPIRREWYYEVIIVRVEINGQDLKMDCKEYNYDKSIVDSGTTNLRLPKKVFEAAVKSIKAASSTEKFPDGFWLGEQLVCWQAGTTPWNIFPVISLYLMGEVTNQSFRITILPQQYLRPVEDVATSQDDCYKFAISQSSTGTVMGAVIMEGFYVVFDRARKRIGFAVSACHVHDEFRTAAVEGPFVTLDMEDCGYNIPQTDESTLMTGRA
Reported Endpoint: pKd
pKd here is simply -log10 of the concentration when that concentration is written in mol/L.

binder="6309 (antibody, V domains shown, anti-BACE1 IgG) VH: QLQLQESGPGLVKPSETLSLTCTVSGGSISWSSYYWSWIRQPPGKGLEWIGSIYRSGRTYYNPSLKSRVTISVDTSKNQFSLKLSSVTAADTAVYYCARVGHGINYFDLWGRGTLVTVSS VL: EIVLTQSPATLSLSPGERATLSCRASQSVSSYLAWYQQKPGQAPRLLIYDASNRATGIPARFSGSGSGTDFTLTISSLEPEDFAVYYCQQSITWPPRTFGGGTKVEIK" observed=9.46

# context switch: different binder, same pKd
Measured pKd of 6311 (antibody, V domains shown, anti-BACE1 IgG) VH: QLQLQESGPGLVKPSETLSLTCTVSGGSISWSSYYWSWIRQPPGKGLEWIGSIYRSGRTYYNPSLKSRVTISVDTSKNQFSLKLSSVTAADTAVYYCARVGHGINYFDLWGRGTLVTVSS VL: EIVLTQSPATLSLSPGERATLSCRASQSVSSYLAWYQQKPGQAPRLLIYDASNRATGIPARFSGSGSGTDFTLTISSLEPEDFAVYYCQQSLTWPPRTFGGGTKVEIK : 9.70
